Assignment: determine reported No.with EAE/Total for the given compounds.
Tested on: Adoptively Transferred EAE
Assay: Inhibition of adoptively transferred EAE (clinical signs), phosphosugar delivered by subcutaneous mini-osmotic pumps
Format: in vivo, Lewis rats
Conditions: Table III; experimental details as in Table I

For each of the compounds below, state No.with EAE/Total.
1. O=P(O)(O)OC[C@H]1OC(O)[C@H](O)[C@@H](O)[C@@H]1O (stereo partly shown) [Glucose-6-phosphate, glucose-6-phosphate]
2. O=C(COP(=O)(O)O)[C@@H](O)[C@H](O)[C@H](O)COP(=O)(O)O [Fructose-1,6-diphosphate, fructose-1,6-diphosphate]
3. O=P(O)(O)OC[C@H]1OC(O)[C@@H](O)[C@@H](O)[C@@H]1O (stereo partly shown) [Mannose-6-phosphate, mannose-6-phosphate]
4. O=C(CO)[C@@H](O)[C@H](O)[C@H](O)COP(=O)(O)O [Fructose-6-phosphate]
5. O=C(COP(=O)(O)O)[C@@H](O)[C@H](O)[C@H](O)CO [Fructose-1-phosphate, fructose-1-phosphate]
6. O=P(O)(O)OC[C@H]1OC(O)[C@H](O)[C@@H](O)[C@H]1O (stereo partly shown) [Galactose-6-phosphate, galactose-6-phosphate]

1. 5/5
2. 5/5
3. 7/10
4. 4/5
5. 3/5
6. 5/5

Entry OC[C@H]1OC(O)[C@@H](O)[C@@H](O)[C@@H]1O (stereo partly drawn) [D-mannose, reference compound] : reported No.with EAE/Total = ? 5/5

---

Test system: Adoptively Transferred EAE
Experiment: Inhibition of adoptively transferred EAE (clinical signs), phosphosugar delivered by subcutaneous mini-osmotic pumps
Type: in vivo, Lewis rats
Conditions: Table III; product of mean clinical score and mean length disease
readout label: Disease Severity (%Control) (%)
Give bare numbers, in %.

Here are 5 molecules together with their reported answers.
molecule="O=C(COP(=O)(O)O)[C@@H](O)[C@H](O)[C@H](O)COP(=O)(O)O [Fructose-1,6-diphosphate, fructose-1,6-diphosphate]" units_label=% quantitative_result=54.0
molecule="O=P(O)(O)OC[C@H]1OC(O)[C@H](O)[C@@H](O)[C@H]1O (stereo partly shown) [Galactose-6-phosphate, galactose-6-phosphate]" units_label=% quantitative_result=40.5
molecule="O=P(O)(O)OC[C@H]1OC(O)[C@H](O)[C@@H](O)[C@@H]1O (stereo partly shown) [Glucose-6-phosphate, glucose-6-phosphate]" units_label=% quantitative_result=50.3
molecule="OC[C@H]1OC(O)[C@@H](O)[C@@H](O)[C@@H]1O (stereo partly drawn) [D-mannose, reference compound]" units_label=% quantitative_result=84.5
molecule="O=C(COP(=O)(O)O)[C@@H](O)[C@H](O)[C@H](O)CO [Fructose-1-phosphate, fructose-1-phosphate]" units_label=% quantitative_result=12.6

The following molecules each have a reported value; give each one's Disease Severity (%Control).
1. O=C(CO)[C@@H](O)[C@H](O)[C@H](O)COP(=O)(O)O [Fructose-6-phosphate]
2. O=P(O)(O)OC[C@H]1OC(O)[C@@H](O)[C@@H](O)[C@@H]1O (stereo partly shown) [Mannose-6-phosphate, mannose-6-phosphate]

25.4
8.9
